Where do the numbers come from? From BigSolDB 2.1.

- particulars: in ethyl acetate, 298.15 K
reported endpoint: solubility (mole fraction)
# print the numeric value only

Challenge: What does the record list as solubility (mole fraction) for O=C(O)[C@@H]1C[C@@H](O)CN1 ?
Response given: 0.00108

====

- particulars: in methanol, 313.15 K
reported endpoint: solubility (mole fraction)
# print the numeric value only

Challenge: What does the record list as solubility (mole fraction) for O=C(O)[C@@H]1C[C@@H](O)CN1 ?
Response given: 0.000328

====

- particulars: in sec-butanol, 333.15 K
reported endpoint: solubility (mole fraction)
# print the numeric value only

Challenge: What does the record list as solubility (mole fraction) for O=C(O)[C@@H]1C[C@@H](O)CN1 ?
Response given: 0.000407

====

- particulars: in 2-butanone, 288.15 K
reported endpoint: solubility (mole fraction)
# print the numeric value only

Challenge: What does the record list as solubility (mole fraction) for O=C(O)[C@@H]1C[C@@H](O)CN1 ?
Response given: 7.9e-05

====

- particulars: in n-butanol, 293.15 K
reported endpoint: solubility (mole fraction)

Challenge: What does the record list as solubility (mole fraction) for O=C(O)[C@@H]1C[C@@H](O)CN1 ?
Response given: 0.000122

====

- particulars: in dichloromethane, 298.15 K
reported endpoint: solubility (mole fraction)
# print the numeric value only

Challenge: What does the record list as solubility (mole fraction) for O=C(O)[C@@H]1C[C@@H](O)CN1 ?
Response given: 0.000412

====

- particulars: in n-butanol, 328.15 K
reported endpoint: solubility (mole fraction)
# print the numeric value only

Challenge: What does the record list as solubility (mole fraction) for O=C(O)[C@@H]1C[C@@H](O)CN1 ?
Response given: 0.00042

====

- particulars: in n-propanol, 293.15 K
reported endpoint: solubility (mole fraction)
# print the numeric value only

Challenge: What does the record list as solubility (mole fraction) for O=C(O)[C@@H]1C[C@@H](O)CN1 ?
Response given: 0.000126

====

- particulars: in isopropanol, 318.15 K
reported endpoint: solubility (mole fraction)
# print the numeric value only

Challenge: What does the record list as solubility (mole fraction) for O=C(O)[C@@H]1C[C@@H](O)CN1 ?
Response given: 0.00031

====

- particulars: in acetonitrile, 333.15 K
reported endpoint: solubility (mole fraction)

Challenge: What does the record list as solubility (mole fraction) for O=C(O)[C@@H]1C[C@@H](O)CN1 ?
Response given: 0.000416

====

- particulars: in acetone, 288.15 K
reported endpoint: solubility (mole fraction)
# print the numeric value only

Challenge: What does the record list as solubility (mole fraction) for O=C(O)[C@@H]1C[C@@H](O)CN1 ?
Response given: 0.0011

====

- particulars: in n-butanol, 283.15 K
reported endpoint: solubility (mole fraction)
# print the numeric value only

Challenge: What does the record list as solubility (mole fraction) for O=C(O)[C@@H]1C[C@@H](O)CN1 ?
Response given: 8.8e-05

====

- particulars: in 1,4-dioxane, 308.15 K
reported endpoint: solubility (mole fraction)
# print the numeric value only

Challenge: What does the record list as solubility (mole fraction) for O=C(O)[C@@H]1C[C@@H](O)CN1 ?
Response given: 0.00131

====

- particulars: in ethyl acetate, 333.15 K
reported endpoint: solubility (mole fraction)
# print the numeric value only

Challenge: What does the record list as solubility (mole fraction) for O=C(O)[C@@H]1C[C@@H](O)CN1 ?
Response given: 0.00379
